Listed compounds paired with reported nuclei count
Test: endothelial E-selectin expression blockers – imaging, HUVEC, immunofluorescence, MLSMR starter and 10KST1 sets, primary screen (AID 487);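 also: 100% = median nuclei count of all wells on the same plate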
Settings: HUVEC TNFalpha-induced E-selectin immunofluorescence imaging, at 2 µM; measured here: cell number, toxicity
Value expressed in %; do not type the unit.

Qu. Please look up its nuclei count: COc1ccccc1CN1CC(C(=O)N2CCN(c3ccc(F)cc3)CC2)CC1=O (stereo unspecified)
Ans. 106

Qu. Then this compound: COc1ccc(N2C(=O)CC(NC3CC3)C2=O)cc1 (stereo unspecified)
Ans. 110

Qu. Then this compound: Cc1[nH]c(=O)[nH]c(=O)c1S(=O)(=O)Nc1ccc(Oc2ccccc2)cc1
Ans. 107

Qu. Then this compound: COc1ccccc1C1c2c(oc3ccc(Cl)cc3c2=O)C(=O)N1c1cc(C)on1 (stereo unspecified)
Ans. 112

Qu. Then this compound: Cc1n[nH]c(C)c1S(=O)(=O)Nc1ccc2c(c1)OCCO2
Ans. 84.4

Qu. Then this compound: CC(C)NCC(O)COc1ccc(CC(N)=O)cc1 (stereo unspecified)
Ans. 135

* * *

Experiment: blockers of RIG-like receptor reporter activation – cell-based, Sendai virus stimulus, luciferase, 10K MLSCN set, TLR/RLR signaling modifier project, primary screen (AID 602276);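 also: firefly luciferase from ISG56 promoter only with Renilla not read in this screen; 0% = Sendai virus plus DMSO and 100% = medium plus DMSO without virus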
Details: HEK293 RL24 IRF3 luciferase reporter, at 10 µM, stronger effect = higher value
Listed molecules paired with reported inhibition
Value expressed in %; do not type the unit.

Study these solved cases before continuing.
Qu. Please look up its inhibition: CCCCC(=O)Nc1nn(CCC)c2nc3ccccc3cc12
Ans. 10.1

Qu. Then this molecule: COc1ccccc1C(=O)NCCc1nc2ccccc2n1C
Ans. -9.79

Qu. Then this molecule: COc1ccc(Cl)cc1NC(=O)c1oc(C)nc1C
Ans. 25.6

Qu. Then this molecule: Cc1nc(NCc2ccccn2)c2ccccc2n1
Ans. 4.35

Qu. Then this molecule: O=C(CN(Cc1ccco1)C(=O)CNS(=O)(=O)c1ccc(Cl)cc1)NCc1ccc(F)cc1
Ans. 22.1

Qu. Then this molecule: N#C[C@@H]1[C@@H]2C(=O)N(c3ccc4c(c3)OCCO4)C(=O)[C@@H]2C2c3ccccc3C=CN21 (stereo partly drawn)
Ans. -1.7

---
Qu. Please look up its inhibition: O=C(CN1C(=O)COc2ccccc21)NCCCN1CCN(Cc2ccccc2)CC1
Ans. -9.51

Qu. Then this molecule: CC(C)(C)OC(=O)N1CCOCCOCCN(C(=O)OC(C)(C)C)CCOCCOCC1
Ans. 4.46

Qu. Then this molecule: COC(=O)c1ccc2c(=O)n(Cc3ccco3)c(SCC(=O)Nc3ccc(C)c(Cl)c3)nc2c1
Ans. 13.7

Qu. Then this molecule: CN(Cc1nc(-c2ccncc2)no1)S(=O)(=O)c1ccc(Br)cc1
Ans. 4.91

Qu. Then this molecule: COc1ccc(OC)c(NC(=O)Cc2coc3ccc(C)cc23)c1
Ans. 13.3

Qu. Then this molecule: CC1CC(C)CN(CCCNC(=O)COc2cc(=O)n(C)c3ccccc23)C1 (stereo not drawn)
Ans. 11.3

Qu. Then this molecule: COc1cccc(-c2cc(C(=O)N3CCCc4ccccc43)no2)c1
Ans. 0.639

Qu. Then this molecule: CC(=O)Nc1cccc(NC(=O)CSc2nnnn2C(C)C)c1
Ans. 12.9

* * *

Experiment: reduction of polyQ htt aggregates in cells – imaging, exon1htt(103Q)mCFP cells, high-content imaging, primary screen (AID 483);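 also: compound exposure lasted 3 days before fixation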
Settings: exon1htt(103Q)mCFP cell line, aggregate imaging, at 2 µM; stronger effect = higher value
REPORTED_ENDPOINT: inhibition of aggregation (%)
Value expressed in %; do not type the unit.

Study these solved cases before continuing.
Qu. Please look up its inhibition of aggregation: Cc1c(/C(O)=C2/C(=O)C(=O)N(CCN3CCOCC3)C2c2cccs2)cnn1-c1ccccc1 (stereo not given)
Ans. -5

Qu. Then this compound: Cc1sc2ncnc(OCC(=O)N3CCN(S(=O)(=O)c4ccc(Cl)cc4)CC3)c2c1C
Ans. -30.8

Qu. Then this compound: COc1ccc(-n2ncc3c(NCc4ccccn4)ncnc32)cc1
Ans. 7.6

Qu. Then this compound: COc1ccc(OC)c(NC(=O)Cc2coc3ccc(C)cc23)c1
Ans. 3.9

The record that follows has no inhibition of aggregation shown yet.
Qu. Please look up its inhibition of aggregation: COc1ccc(N(CC(=O)N2CCN(Cc3ccc4c(c3)OCO4)CC2)S(C)(=O)=O)cc1OC
Ans. 2.1

* * *

Listed molecules paired with reported NADPH fluorescence slope
Biological target: Voltage-gated potassium channel subunit beta-2 (Rattus norvegicus)
Assay: enhancers of rat Kvbeta2 NADPH turnover – biochemical, NADPH fluorescence, primary screen (AID 623);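 also: fluorescence intensity change per second fitted from 20 to 320 s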
Conditions: Recombinant KvBeta, NADPH fluorescence decrease slope, 10 min; at 10 µM; stronger effect = lower value
API doc: respond with a numeric literal and nothing else, no unit.

Qu. NADPH fluorescence slope of CCOC(=O)c1ccc(COC(=O)CCc2nc3ccccc3[nH]c2=O)o1 on Voltage-gated potassium channel subunit beta-2 (Rattus norvegicus)?
Ans. 1.7e-05

Qu. Then this molecule: CCCCn1c(SCC(=O)c2ccc3c(c2)OCCO3)nnc1-c1ccco1
Ans. 0.00011

Qu. Then this molecule: COc1ccc(C(C)(C)C)cc1NC(=O)Nc1ccc2c(c1)OCO2
Ans. -8.3e-06

Qu. Then this molecule: CCOC(=O)N1CCC(NC(=O)c2ccc3nc(N4CCOCC4)sc3c2)CC1
Ans. 1.8e-05

Qu. Then this molecule: CC(=O)Oc1oc(-c2ccccc2)nc1/C=N/c1ccccn1
Ans. -5.8e-05

The record that follows has no NADPH fluorescence slope shown yet.
Qu. NADPH fluorescence slope of O=C(Cn1nc(C(F)(F)F)c2c1CCCC2)NCCN1CCOCC1 on Voltage-gated potassium channel subunit beta-2 (Rattus norvegicus)?
Ans. -0.00011

* * *

Listed compounds paired with reported NADPH fluorescence slope
Biological target: Voltage-gated potassium channel subunit beta-2 (Rattus norvegicus) (UniProt P62483)
Sequence (P62483 whole entry, looked up): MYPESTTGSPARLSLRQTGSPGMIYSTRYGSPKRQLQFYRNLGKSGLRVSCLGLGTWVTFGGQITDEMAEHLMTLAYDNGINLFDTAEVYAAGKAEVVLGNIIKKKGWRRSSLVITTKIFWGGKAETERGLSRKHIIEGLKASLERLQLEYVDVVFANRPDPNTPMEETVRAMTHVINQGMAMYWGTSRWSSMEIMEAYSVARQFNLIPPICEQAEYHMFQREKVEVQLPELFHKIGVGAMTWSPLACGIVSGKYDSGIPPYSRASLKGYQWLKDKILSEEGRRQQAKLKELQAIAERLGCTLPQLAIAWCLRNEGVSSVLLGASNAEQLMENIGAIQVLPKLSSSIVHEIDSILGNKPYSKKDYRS
Experiment: enhancers of rat Kvbeta2 NADPH turnover – biochemical, NADPH fluorescence, primary screen (AID 623);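 also: fluorescence intensity change per second fitted from 20 to 320 s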
Settings: Recombinant KvBeta, NADPH fluorescence decrease slope, 10 min; at 10 µM; stronger effect = lower value
API doc: respond with a numeric literal and nothing else, no unit.

Qu. Please look up its NADPH fluorescence slope: c1cncc(-c2nnc(-c3ccco3)o2)c1
Ans. -1.2e-05

Qu. Then this compound: CCC(Sc1nc2n[nH]c(C)c2c(=N)n1-c1cc(Cl)ccc1C)C(=O)N1CCOCC1 (configuration not stated)
Ans. -1.6e-05

Qu. Then this compound: COCCn1c(SCC(=O)Nc2nnc(C)s2)nnc1-c1ccncc1
Ans. -1.8e-05

Qu. Then this compound: CC(C)OC(=O)CSc1nnc(Cc2ccccc2)n1Cc1ccco1
Ans. -2.4e-05

Qu. Then this compound: C=CCOc1ccc(/C(O)=C2\C(=O)C(=O)N(CCOC)C2c2cccnc2)cc1 (configuration not stated)
Ans. -4.4e-05

---
Qu. Please look up its NADPH fluorescence slope: CC(=O)c1c(C)[nH]c(C(=O)NCc2cccs2)c1C
Ans. -4.9e-05

Qu. Then this compound: COc1ccc(OC)c(NC(=O)CSc2nc3ccccc3c(=O)n2CCNC(C)=O)c1
Ans. 4e-05

Qu. Then this compound: CC1CN(CC(O)COc2ccc(C(C)C)cc2)CC(C)O1 (configuration not stated)
Ans. -0.000138

Qu. Then this compound: COc1cc(C)nc(NS(=O)(=O)c2ccc(C)cc2)n1
Ans. -2.7e-05

Qu. Then this compound: COc1ccccc1-c1nnc2sc(-c3ccc(N(C)C)cc3)nn12
Ans. 1.2e-05

Qu. Then this compound: CCOc1ccc(N(C)S(=O)(=O)c2ccc3[nH]cc(C(=O)NCC4CCCO4)c(=O)c3c2)cc1 (configuration not stated)
Ans. -4.5e-05

* * *

Assay: endothelial E-selectin expression blockers – imaging, HUVEC, immunofluorescence, MLSMR starter and 10KST1 sets, primary screen (AID 487);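 also: 100% = median nuclei count of all wells on the same plate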
Conditions: HUVEC TNFalpha-induced E-selectin immunofluorescence imaging, at 2 µM; measured here: cell number, toxicity
REPORTED_ENDPOINT: nuclei count (%)
Value expressed in %; do not type the unit.

Study these solved cases before continuing.
Qu. Please look up its nuclei count: N#CC1=C(N)Oc2n[nH]c(-c3ccncc3)c2C1c1ccsc1 (stereo unspecified)
Ans. 98.6

Qu. Then this molecule: CC(C)(C)C1=C[C@@H](CO)C[C@@H](CO)C1
Ans. 138

Qu. Then this molecule: Cc1cccc(N2CCN(C(=O)c3cc4c(=O)[nH]c5ccccc5c4n3C)CC2)c1C
Ans. 106

---
Qu. Please look up its nuclei count: CN(c1cccc(NS(=O)(=O)c2cccs2)c1)S(C)(=O)=O
Ans. 109

Qu. Then this molecule: O=c1c2c(nc3nc(COc4ccccc4)[nH]n13)CCC2
Ans. 102

Qu. Then this molecule: CCOc1ccc(C(=O)N(CN2CCCC2=O)c2ccc(C)cc2)cc1
Ans. 84
